This collection of values is drawn from patent EP3578559B1.

assay: physchem
MEASUREMENT TYPE: logP
Kindly provide the number alone.

Asked: Given the compound CC[N+]1(CC)CN2C(=N1)C(C(=O)ON1C(=O)CCC1=O)=Cc1ccc(C)cc12.[Cl-] , what is its reported logP?
Given back: -0.43

Asked: So what's the measured logP for this one? CC[N+]1(CC)CN2C(=N1)C(C(=O)[O-])=Cc1ccccc12
Given back: -1.9
